Quick reference for EC50 among some compounds
Test system: Trypanosoma brucei brucei
method_description: Antiparasitic activity against bloodstream trypomastigote stage of wild type Trypanosoma brucei brucei Lister 427 after 48 hrs by resazurin dye based fluorescence assay
Assay type: functional, organism-based
run_conditions: Lister 427, 48 h

{"smiles_representation": "COC(=O)c1ccc(OCCCCCCCCCCCCCBr)cc1O", "EC50, µM": 8.1}
{"smiles_representation": "COC(=O)c1ccc(OCCCCCCCCCCCCC[P+](c2ccccc2)(c2ccccc2)c2ccccc2)cc1C.[Br-]", "EC50, µM": 0.018}
{"smiles_representation": "CCOC(=O)c1c(C)cc(OC/C(C)=C/CC/C(C)=C/CC/C(C)=C/COC(C)=O)cc1O", "EC50, µM": 6.6}
{"smiles_representation": "COC(=O)c1ccc(OCCCCCCCCCC[P+](c2ccccc2)(c2ccccc2)c2ccccc2)cc1O.[Br-]", "EC50, µM": 0.002}

Cited source for all entries: ChEMBL document CHEMBL4196235
